The reader will find reported Inhibition values listed item by item below.
Test system: Klebsiella pneumoniae
Settings: Concentration 32 ug.mL-1;; ASSAY_TEST Inhibition of Bacterial Growth; detection method Absorption (OD600); MEDIA CAMHB; plate type 384well; NBS; CORNING #3640; time 18 hr
Description: Antibacterial activity against Klebsiella pneumoniae MDR ATCC 70063 (CO-ADD:GN_003); MIC in CAMBH media using NBS plates, by OD(600)
Potency and affinity values are given separately.
State the answer as a number, implicitly in %.

record-smiles | experimental-readout | quantitative-result
O=S(=O)(c1ccc2nncn2c1)N(Cc1ccc(F)cc1)c1ccc(F)c(F)c1 | Inhibition | 5.64

Hello, please tell me recorded Inhibition for this one: COc1ccc(NC(=O)Cn2nc3ccc(-c4ccccc4)nn3c2=O)cc1
5.42

Hello, please tell me recorded Inhibition for this one: Cc1ccc(Sc2nccn3c(=O)n(CC(=O)Nc4ccc(Br)cc4)nc23)c(C)c1
5.96

---

The reader will find reported Inhibition values listed item by item below.
Test system: Cryptococcus neoformans
Settings: Concentration 32 ug.mL-1; ASSAY_TEST Inhibition of Fungal Growth; detection method Resazurin; Absorption (OD600-OD570); plate type 384well; NBS; CORNING #3640
Description: Antifungal activity against Cryptococcus neoformans H99 ATCC 208821 (CO-ADD:FG_002); MIC in YNB media using NBS plates, by Resazurin OD(600-570)
Measured potencies and affinities stand elsewhere.
State the answer as a number, implicitly in %.

Hello, please tell me recorded Inhibition for this one: CC(C)Sc1ccc2nn(CC(=O)Nc3ccc(Cl)cc3F)c(=O)n2n1
-18.57

Hello, please tell me recorded Inhibition for this one: COc1cccc(CN(c2ccc(F)c(F)c2)S(=O)(=O)c2ccc3nncn3c2)c1
-8.9

Hello, please tell me recorded Inhibition for this one: COc1cc(NC(=O)Cn2nc3c(Oc4ccccc4)nccn3c2=O)cc(OC)c1OC
-9.79

Hello, please tell me recorded Inhibition for this one: COC(=O)c1ccc(NC(=O)Cn2nc3ccc(Sc4ccc(C)cc4)nn3c2=O)cc1
-10.13

Hello, please tell me recorded Inhibition for this one: Cc1ccc(NC(=O)Cn2nc3ccc(SC4CCCCC4)nn3c2=O)cc1
-17.59

Hello, please tell me recorded Inhibition for this one: COc1cccc(-n2ccn3c(SCc4cccc(F)c4)nnc3c2=O)c1
-9.96

Hello, please tell me recorded Inhibition for this one: Cc1ccc(NC(=O)Cn2nc3ccc(SC(C)C)nn3c2=O)c(Cl)c1
-1.74

Hello, please tell me recorded Inhibition for this one: CC(C)CCn1c(=O)c2sccc2n2c(=O)n(CC(=O)N(C)c3ccccc3)nc12
-16.67

---

System: Candida albicans
Conditions: Concentration 32 ug.mL-1; ASSAY_TEST Inhibition of Fungal Growth; detection method Absorption (OD530)
Description: Antifungal activity against Candida albicans ATCC 90028 (CO-ADD:FG_001); MIC in YNB media using NBS plates, by OD630
Entries with a potency or affinity are not part of this list.
The reader will find reported Inhibition values listed item by item below.
State the answer as a number, implicitly in %.

Worked cases, Inhibition given:
record-smiles | result-unit | Inhibition
Cc1ccc(NC(=O)Cn2nc3c4c5c(sc4ncn3c2=O)CCCC5)c(Cl)c1 | % | 9.32
COc1cc(NC(=O)Cn2nc3c4c5c(sc4ncn3c2=O)CCCC5)cc(OC)c1 | % | 7.26
CCOc1ccc(-n2ccn3c(SCC(N)=O)nnc3c2=O)cc1 | % | 1.43
COc1ccc(-c2cc3c4nnc(SCC(=O)Nc5ccccc5C(F)(F)F)n4ccn3n2)cc1 | % | 3.79
COc1ccc(CNC(=O)Cn2nc3c(SC4CCCCC4)nccn3c2=O)cc1 | % | 17.79
COc1cccc(CNC(=O)CCc2nnc3ccc(-c4ccc(C)cc4)nn23)c1 | % | 2.05
Cc1cc(C)c(NC(=O)Cn2nc3ccc(SCc4ccc(Cl)cc4)nn3c2=O)c(C)c1 | % | 6.58
CCc1nnc2c(=O)n(CC(=O)Nc3cccc(C#N)c3)c3ccccc3n12 | % | 5.47
Cc1ccc(NC(=O)CSc2nnc3ccc(C(=O)Nc4cccc(F)c4)cn23)cc1F | % | -0.33
Cc1ccc2c(c1)N(C(=O)Cn1nc3ccc(S(=O)(=O)C(C)(C)C)nn3c1=O)CCO2 | % | 0.51

// switching to the query molecule
Under Candida albicans, report Inhibition for O=c1c2nnc(SCc3cccc(F)c3)n2ccn1-c1ccc(Br)cc1
4.16

---

Test system: Cryptococcus neoformans
Conditions: Concentration 32 ug.mL-1; ASSAY_TEST Inhibition of Fungal Growth; detection method Resazurin; Absorption (OD600-OD570); plate type 384well; NBS; CORNING #3640
Measured potencies and affinities stand elsewhere.
The reader will find reported Inhibition values listed item by item below.
State the answer as a number, implicitly in %.

Worked cases, Inhibition given:
compound | experimental-readout | quantitative-result
COc1ccc(NC(=O)Cn2nc3cc(C)nc(Nc4ccc(F)cc4)n3c2=O)cc1F | Inhibition | -3.63
COc1cc(NC(=O)C(C)Sc2nnc3c(=O)n(-c4ccccc4OC)ccn23)cc(OC)c1 (stereo not drawn) | Inhibition | -7.6

// switching to the query compound
Hello, please tell me recorded Inhibition for this one: CCCc1nnc2c(=O)n(CC(=O)Nc3cccc(C(C)=O)c3)c3ccccc3n12
-25.21

---

System: Cryptococcus neoformans
Conditions: Concentration 32 ug.mL-1; ASSAY_TEST Inhibition of Fungal Growth; detection method Resazurin; Absorption (OD600-OD570); plate type 384well; NBS; CORNING #3640
Entries with a potency or affinity are not part of this list.
Define the label as Satisfied when Inhibition is strictly less than -10% and as Not satisfied in all remaining cases.

# count of solved cases: 3
compound | class-assignment
CCc1nnc2c(SCC(=O)NCc3ccccc3Cl)nc3ccccc3n12 | Satisfied
CCCCc1ccc(NC(=O)Cn2nc3c(Sc4ccccc4)nccn3c2=O)cc1 | Satisfied
Cc1ccc(-c2cc3c4nn(CC(=O)Nc5ccc(Br)cc5)c(=O)n4ccn3n2)cc1C | Not satisfied

Consider the compound COC(=O)c1ccc(NC(=O)Cn2nc3c(Oc4cccc(OC)c4)nccn3c2=O)cc1 . Is its Inhibition strictly less than -10%?
Not satisfied

Consider the compound Cc1ccc(-c2cc3c4nn(CC(=O)Nc5ccc6c(c5)OCCO6)c(=O)n4ccn3n2)cc1C . Is its Inhibition strictly less than -10%?
Satisfied

Consider the compound COc1cccc(-n2ccn3c(-c4ccc([N+](=O)[O-])cc4)nnc3c2=O)c1 . Is its Inhibition strictly less than -10%?
Satisfied

Consider the compound CCc1nnc2c(S(=O)(=O)N(Cc3ccccc3C)c3ccc(C(C)C)cc3)cccn12 . Is its Inhibition strictly less than -10%?
Not satisfied

Consider the compound CC(C)NC(=O)CCn1c(=O)c2cc(Cl)ccc2n2c(=O)n(CC#N)nc12 . Is its Inhibition strictly less than -10%?
Satisfied

Consider the compound Cc1ccc(C)c(Cn2nc3c(=O)n(-c4cccc(Cl)c4C)ccn3c2=O)c1 . Is its Inhibition strictly less than -10%?
Satisfied

Consider the compound CC(C)c1ccc(NC(=O)Cn2nc3c(N4CCCC4)nccn3c2=O)cc1 . Is its Inhibition strictly less than -10%?
Satisfied

Consider the compound CCOc1ccc(-n2ccn3c(SC(C)C(=O)Nc4cc(OC)cc(OC)c4)nnc3c2=O)cc1 (stereo not given) . Is its Inhibition strictly less than -10%?
Not satisfied

Consider the compound O=C(Cn1nc2c(SCc3ccc(Cl)cc3)nccn2c1=O)N1CCN(c2ccccc2)CC1 . Is its Inhibition strictly less than -10%?
Not satisfied

Consider the compound CCCCOc1ccc(-c2cc3c4nnc(SCC(=O)Nc5ccccc5Cl)n4ccn3n2)cc1 . Is its Inhibition strictly less than -10%?
Satisfied

Consider the compound COC(=O)c1ccc(NC(=O)CSc2nnc3ccc(C(=O)Nc4cccc(F)c4)cn23)cc1 . Is its Inhibition strictly less than -10%?
Not satisfied

Consider the compound CC(C)CCn1c(=O)c2sccc2n2c(=O)n(CC(=O)NC(C)C)nc12 . Is its Inhibition strictly less than -10%?
Satisfied

Consider the compound Cc1ccc(NC(=O)Cn2nc3c4cc(-c5ccc(Cl)cc5)nn4ccn3c2=O)cc1F . Is its Inhibition strictly less than -10%?
Satisfied

Consider the compound C=Cc1ccc(Cn2nc3c(=O)n(-c4cccc(Cl)c4C)ccn3c2=O)cc1 . Is its Inhibition strictly less than -10%?
Not satisfied

Consider the compound Cc1cc(C)c(NC(=O)Cn2nc3n(C)c(=O)c4c(c(-c5ccccc5)cn4C)n3c2=O)c(C)c1 . Is its Inhibition strictly less than -10%?
Not satisfied

Consider the compound O=C(Cn1nc2c(N3CCOCC3)nccn2c1=O)NCc1ccc(F)cc1 . Is its Inhibition strictly less than -10%?
Not satisfied

Consider the compound CCc1ccc(Cn2c(=O)c3sccc3n3c(SCc4cccc(C(F)(F)F)c4)nnc23)cc1 . Is its Inhibition strictly less than -10%?
Satisfied

Consider the compound CC(C)(C)Sc1ccc2nn(CC(=O)N3CCN(c4ccc(F)cc4)CC3)c(=O)n2n1 . Is its Inhibition strictly less than -10%?
Not satisfied

Consider the compound Cc1ccc(F)cc1NC(=O)CSc1nnc2ccc(C(=O)Nc3cccc(F)c3)cn12 . Is its Inhibition strictly less than -10%?
Not satisfied

Consider the compound Cc1nnc2ccc(S(=O)(=O)N(Cc3ccccc3Cl)c3ccc(F)cc3)cn12 . Is its Inhibition strictly less than -10%?
Not satisfied

Consider the compound CCc1ccccc1NC(=O)Cn1nc2c(SC3CCCCC3)nccn2c1=O . Is its Inhibition strictly less than -10%?
Satisfied

Consider the compound COc1ccc(NC(=O)Cn2nc3ccc(-c4ccc(Cl)cc4)nn3c2=O)cc1OC . Is its Inhibition strictly less than -10%?
Satisfied

Hey, just so you know, these numbers are from ChEMBL document CHEMBL4513146.
